tested on: HEK-293T; experiment: Incucyte cell viability with HEK293T; format: toxicity, cell-based; conditions: human, 6 h, 10 µM, compound concentration 10 uM, replicate number 2; further: unitless GR value; below 1 slowed growth and below 0 cell loss
measurement_name: Growth Rate
Field format: numeric only.

Consider "CN(C)CC#Cc1ccc2[nH]c3c(c2c1)-c1nc(N)ncc1CCC3" . Its measured Growth Rate is -0.58

Consider "CN[C@@H](C)C(=O)N[C@H](C(=O)N1CCC[C@H]1C(=O)N[C@@H]1CCCc2ccccc21)C1CCCCC1.Cl" . Its measured Growth Rate is 0.63

Consider C=C1/C(=C\C=C2/CCC[C@]3(C)[C@@H]([C@H](C)CCCC(C)(C)O)CC[C@@H]23)C[C@@H](O)C[C@@H]1O [CALCITRIOL] . Its measured Growth Rate is 0.4

Consider "N[C@@H]1CCCN(c2c(/C=C3\SC(=O)NC3=O)cccc2-c2ccccc2)C1" . Its measured Growth Rate is 0.84

Consider "CN(C)CCOc1ccc(/C(=C(/CCCO)c2ccccc2)c2ccc(O)cc2)cc1" . Its measured Growth Rate is 0.71

Consider "O=C(Nc1ccc(-n2nc(C(F)(F)F)cc2C(F)(F)F)cc1)c1ccncc1F" . Its measured Growth Rate is -0.25

Consider CSc1ccc(C(=O)/C=C/c2cc(C)c(OC(C)(C)C(=O)O)c(C)c2)cc1 [ELAFIBRANOR] . Its measured Growth Rate is 0.6

---
Consider "CC(C)(O)C(=O)N1CCN(c2ccc(C(F)(F)F)c(C3=C(c4c[nH]c5ccccc45)C(=O)NC3=O)c2)CC1" . Its measured Growth Rate is 0.29

====

test system: U2OS; experiment: Incucyte cell viability with U2OS; type: toxicity, cell-based; conditions: human, 18 h, 10 µM, compound concentration 10 uM, replicate number 1; further: unitless GR value; below 1 slowed growth and below 0 cell loss
This listing pairs compounds with measured Growth Rate.
Field format: numeric only.

Consider CC(Sc1nc2c(cnn2-c2cccc(Cl)c2)c(=O)[nH]1)C(N)=O (centres undefined) . Its measured Growth Rate is 0.85

---
Consider "COc1ccccc1[C@@H]1CNCCC12CCN(C(=O)[C@](OC)(c1ccccc1)C(F)(F)F)CC2" . Its measured Growth Rate is 0.73

Consider O=C(CNC(=O)c1ccc(-c2ccccc2)cc1)NC1CCCc2ccccc21 (centres undefined) . Its measured Growth Rate is 0.43

Consider "CN1CCN(c2ccc(C(=O)Nc3n[nH]c4ccc(Cc5cc(F)cc(F)c5)cc34)c(NC3CCOCC3)c2)CC1" . Its measured Growth Rate is -0.64

Consider CCCCc1oc2ccccc2c1C(=O)c1cc(I)c(OCCN(CC)CC)c(I)c1.Cl [AMIODARONE HYDROCHLORIDE] . Its measured Growth Rate is 0.77

====

tested on: HEK-293T; assay: Incucyte cell viability with HEK293T; type: toxicity, cell-based; conditions: human, 12 h, 10 µM, compound concentration 10 uM, replicate number 1; further: unitless GR value; below 1 slowed growth and below 0 cell loss
measurement_name: Growth Rate
Field format: numeric only.

Consider "CC(=O)Nc1ncc(CN2CCC[C@H](Cc3cc(C)nc(C)c3)C2)s1" . Its measured Growth Rate is 0.83

---
Consider CC(=O)c1c(C)c2cnc(Nc3ccc(N4CCN(CCCCNC(=O)COc5cccc6c5C(=O)N(C5CCC(=O)NC5=O)C6=O)CC4)cn3)nc2n(C2CCCC2)c1=O (stereo not drawn) . Its measured Growth Rate is 0.82

Consider "CN(CC(=O)Nc1ccc(F)c(F)c1F)C(=O)c1ccc2c(c1)OCCO2" . Its measured Growth Rate is 0.74

Consider "Cc1ccccc1Oc1cc(-n2c(=O)cc(C(F)(F)F)[nH]c2=O)c2ccccc2c1Cl" . Its measured Growth Rate is 0.74

Consider "O=C1NC(=Nc2c(Cl)cccc2Cl)S/C1=C\c1ccc2nccnc2c1" . Its measured Growth Rate is 0.48

Consider "CC1CCN(C(=O)[C@H](CCn2cccc2C#N)NS(=O)(=O)c2cccc3[nH]ccc23)CC1" . Its measured Growth Rate is 0.92

Consider "C=CC(=O)Nc1ccc(C(=O)Nc2n[nH]c3c2CN(C(=O)N[C@H](CN(C)C)c2ccccc2)C3(C)C)cc1" . Its measured Growth Rate is 0.02

Consider "Cc1cc(-c2cnc(N)c3c(-c4ccc5scnc5c4)csc23)n(C)n1" . Its measured Growth Rate is -0.15
